tested on: A498; test: minimum viability across doses, drug alone, relative to DMSO (fraction); higher = less growth inhibition; conditions: treatment: drug alone; 5 days
quantity: minimum viability across doses
Would you mind answering with just the numeric figure?

Below, 2 compounds whose answers are already recorded.
CC(O)C(=O)O.CC(O)C(=O)O.CN1CCN(c2ccc3nc(-c4c(N)c5c(F)cccc5[nH]c4=O)[nH]c3c2)CC1 [Dovitinib Dilactic acid (TKI258 Dilactic acid)]    0.494
Nc1ncnc2c1c(-c1cnc3[nH]ccc3c1)nn2C1CCCC1 [PP-121]    0.0928

Give the value of minimum viability across doses reported for the following: COc1cc(Nc2c(C#N)cnc3cc(OCCCN4CCN(C)CC4)c(OC)cc23)c(Cl)cc1Cl [Bosutinib (SKI-606)]
0.233

Give the value of minimum viability across doses reported for the following: COc1ccc(COc2cc3oc(=O)c4cc(C(C)O)ccc4c3cc2OC)cc1 (configuration not stated) [Palomid 529]
1.12

Give the value of minimum viability across doses reported for the following: Cl.Cl.Clc1ccc(Nc2nnc(Cc3ccncc3)c3ccccc23)cc1 [Vatalanib dihydrochloride (PTK787)]
0.933

Give the value of minimum viability across doses reported for the following: COc1ccc2c(Oc3ccc(NC(=O)c4c(C)n(CC(C)(C)O)n(-c5ccccc5)c4=O)nc3)ccnc2c1 [AMG458]
0.859

Give the value of minimum viability across doses reported for the following: CN1C(=O)C(Cc2c[nH]c3ccccc23)NC1=S (configuration not stated) [Necrostatin-1]
0.888
